Tested on: P388 leukemia ip, CD2F1 mice, survival T/C
Test: NCI In Vivo Anticancer Drug Screen. Data for tumor model P388 Leukemia (intraperitoneal) in CD2F1 (CDF1) mice
Conditions: endpoint: median survival time; dose: 12.5 mg/kg/injection; schedule: Q01DX009 (ip); vehicle: saline; higher = longer survival
Protocol: The antitumor activity of compounds was measured in mice bearing transplantable tumors. Survival or tumor size were measured and the results are expressed as the measurement made in the treated group (T) divided by the measurement made in the vehicle treated control group (C). The tumor model used in this assay is P388 Leukemia (intraperitoneal) in CD2F1 (CDF1) mice
Toxic doses and inconclusive results are not listed.
// reported T/C per item

Worked set:
>  <compound>
C[n+]1ccccc1C#N

>  <result>
109 % of control

$$$$
>  <compound>
O=C(O)Cc1cnc[nH]1

>  <result>
106 % of control

$$$$

Using the record for CC(CN1CCOCC1)(CN1CCOCC1)[N+](=O)[O-] , state its measured T/C. 111 % of control

// Input: C[n+]1c(SCC(=O)O)sc2ccccc21 . Output its T/C only. 99 % of control

Provide only the value of recorded T/C for c1ccc(Cc2cc[n+](Cc3ccccc3)cc2)cc1 100 % of control

Entry source: PubChem BioAssay AID330
